Here we gather pIC50 data for Bone morphogenetic protein receptor type-1B (Homo sapiens) reported by several publications.
For clarity, pIC50 is expressed as the negative log10 of concentration in mol/L.

INSERT INTO assay_data (compound, measured_attribute, quantitative_result) VALUES
  ('CC(C)N1CCN(c2ccc(-c3cnc(N)c(C(=O)N[C@H]4CC[C@H](O)CC4)c3)c(F)c2)CC1', 'pIC50', 5.30),
  ('C[C@@H]1CCCN1Cc1ccc(-c2cnc(N)c(C(=O)N[C@H]3CC[C@](C)(O)CC3)c2)cc1Cl', 'pIC50', 5.00),
  ('Cc1cc(-c2cnc3cc(-c4ccc(C5COCCN5)cc4)ccn23)c2cc(F)cc(F)c2n1 (stereo not shown)', 'pIC50', 6.89),
  ('CC(C)N1C[C@H]2C[C@@]2(c2ccc(-c3cnc(N)c(C(=O)N[C@H]4CC[C@](C)(O)CC4)c3)cc2)C1', 'pIC50', 5.14),
  ('CN1C(=O)Cc2cc(-c3cncc(-c4ccc(=O)n(C5CCCC5)c4)c3)ccc21', 'pIC50', 5.28);

// moving on: another record for pIC50
Consider CC(C)n1cc(-c2nc(-c3ccc4c(c3)CC(=O)N4C)cnc2N)ccc1=O . Its measured pIC50 is 5.70
